# assay method text: Stability of peptides incubated in rat plasma at 37° C., HPLC
# Format: in vitro ADME
# measurement conditions: read-out: half-life in plasma
measured quantity: half-life (min)
Quick reminder: number only, in min, skip the unit.

// sample CC[C@H](C)[C@H](NC(=O)[C@H](Cc1ccc(O)cc1)NC(=O)[C@@H](NC(=O)[C@H](CCCNC(=N)N)NC(=O)[C@@H](N)CC(=O)O)C(C)C)C(=O)N[C@@H](Cc1c[nH]cn1)C(=O)N1CCC[C@H]1C(=O)O , its half-life was 30

====

# assay method text: Stability of peptides incubated in rat plasma at 37° C., HPLC
# Assay type: in vitro ADME
# measurement conditions: rat plasma, 37° C., HPLC, read-out: half-life in rat plasma (converted)
Where a SMILES comes first, the peptide text is derived from it. Bridges are numbered along the chain shown (N, C = ends). [ ]: non-standard residue; d: D form.
Reported half-life values follow for various compounds

// sample CC[C@H](C)[C@@H]1NC(=O)[C@H](Cc2ccc(O)cc2)NC(=O)[C@H](C(C)C)NC(=O)[C@H](CCCNC(=N)N)NC(=O)[C@H](CC(=O)O)NC(=O)C[C@@H](C(=O)N[C@@H](C(=O)N2CCC[C@@H]2C(N)=O)C(C)C)NC(=O)[C@@H]2CCCN2C(=O)[C@H](Cc2c[nH]cn2)NC1=O [TCAng04, cyc[DRVYIHPD](dV)(dP)-amide] (DRVYIHPD[dV][dP]-NH2; lactam N-8) , its half-life was ~3000 min

// sample CC[C@H](C)[C@H](NC(=O)[C@H](Cc1ccc(O)cc1)NC(=O)[C@@H](NC(=O)[C@H](CCCNC(=N)N)NC(=O)[C@@H](N)CC(=O)O)C(C)C)C(=O)N[C@@H](Cc1c[nH]cn1)C(=O)N1CCC[C@H]1C(=O)O [Ang-(1-7), DRVYIHP] , its half-life was ~30 min
